FYI, the data here is from patent US20050222136A1.

system: male Wistar albino rats; experiment: Determination of ulcerogenic effect in rats; assay type: in vivo; conditions: 80 mg/kg p.o., stomach three hours after administration
Structures can show the parent of a compound that is named as a salt.
Each record here notes measured Ulcerated area.

[
  {
    "MOLECULE": "COc1ccc2cc([C@H](C)C(=O)O)ccc2c1 [Naproxen, reference compound]",
    "Ulcerated area (mm^2)": 10.5
  },
  {
    "MOLECULE": "CN(C)CCO[C@H](c1ccccc1)c1ccnn1C.O=C(O)Cc1ccccc1Nc1c(Cl)cccc1Cl [R-(+)-Cizolirtine diclofenacate]",
    "Ulcerated area (mm^2)": 2.75
  },
  {
    "MOLECULE": "CC(C)Cc1ccc(C(C)C(=O)O)cc1.[Na] (stereo not shown) [Ibuprofen-sodium, ibuprofen-sodium, reference compound]",
    "Ulcerated area (mm^2)": 5.29
  },
  {
    "MOLECULE": "O=C(O)Cc1ccccc1Nc1c(Cl)cccc1Cl [Diclofenac-sodium, diclofenac in form of its sodium salt, reference compound]",
    "Ulcerated area (mm^2)": 13.7
  }
]

====

tested on: male Swiss albino mice; assay: Writhing test in mice (phenylbenzoquinone-induced writhing reactions); type: in vivo; details: p.o., mice; in mg/kg
Friendly reminder: Writhing test ED50 below 80 is Satisfied, at or above is Not satisfied.

[
  {
    "COMPOUND": "CC(C)Cc1ccc([C@H](C)C(=O)O)cc1.CN(C)CCO[C@H](c1ccccc1)c1ccnn1C [R-(+)-Cizolirtine ibuprofenate]",
    "TARGET_ENTITY": "male Swiss albino mice",
    "ASSIGNED_CLASS": "Not satisfied"
  },
  {
    "COMPOUND": "CN(C)CCO[C@@H](c1ccccc1)c1ccnn1C [S-(−)-Cizolirtine]",
    "TARGET_ENTITY": "male Swiss albino mice",
    "ASSIGNED_CLASS": "Not satisfied"
  },
  {
    "COMPOUND": "CN(C)CCO[C@H](c1ccccc1)c1ccnn1C.COc1ccc2cc([C@H](C)C(=O)O)ccc2c1 [R-(+)-Cizolirtine naproxenate]",
    "TARGET_ENTITY": "male Swiss albino mice",
    "ASSIGNED_CLASS": "Satisfied"
  },
  {
    "COMPOUND": "CN(C)CCO[C@H](c1ccccc1)c1ccnn1C.O=C(O)Cc1ccccc1Nc1c(Cl)cccc1Cl [R-(+)-Cizolirtine diclofenacate]",
    "TARGET_ENTITY": "male Swiss albino mice",
    "ASSIGNED_CLASS": "Not satisfied"
  }
]
